In this section we review reported GI50 values for a set of compounds.
System: NCI-H522
Experiment: NCI tumour cell line growth inhibition, 48 h
Active and inactive are the calls of the source. Cut-off read from the data, not from the text of the source: active = GI50 up to about 1.1 µM and inactive = higher.

| Compound | GI50 |
| --- | --- |
| O=c1sc2c(s1)-c1sc(=O)sc1SS2 | > 91.4 µM (inactive) |
| O=c1nc2n3c4c(cccc4nc-2c(=O)[nH]1)CCC3 | 27.2 µM (inactive) |
| CCc1cccc(C)c1N1C(=O)C(=O)C(c2nc3ccccc3o2)/C(=N/NC(=S)NN)C1=O (centres undefined) | > 100 µM (inactive) |

// switching to the query compound
q: Please indicate GI50 recorded for `COc1ccc(OC)c(NC(=O)C(=O)CC(=O)c2sc(-n3nc(-c4ccccc4)cc3-c3ccccc3)nc2C)c1`
a: > 100 µM (inactive)

###

// GI50 collected for HCT-15
State just the number; it will be interpreted in µM.

Look over these answered cases.
| Compound | System Name | Observed |
| --- | --- | --- |
| COc1ccc(Oc2nc3c(N)cc(C(F)(F)F)cc3nc2-c2ccccc2)cc1 | HCT-15 | 31.6 |
| CC(C)c1cccc(C(C)C)c1N1C(=O)C(=O)C(c2nc3ccccc3o2)C(=O)C1=O | HCT-15 | 49.7 |
| COc1ccc(OC)c(/C=C/c2ccnc3ccccc23)c1 | HCT-15 | 0.372 |

// switching to the query compound
q: Please report GI50 with HCT-15 for item COc1cc2c(cc1OC)C(C#N)(Cc1ccccc1)N(C(=O)c1ccccc1)C=C2 (centres undefined) .
a: 38.8

###

Tested on: SF-539
Experiment: NCI tumour cell line growth inhibition, 48 h
The source made the active and inactive calls. Rule as the data show it: active = GI50 up to about 1.1 µM and inactive = higher.
Give one outcome, nothing more. List: active, inactive

# count of solved cases: 2
| Compound | Classification |
| --- | --- |
| COc1cc(/N=N/N(C)C)c(C(C)c2c3cc(OC)c(OC)cc3cc[n+]2C)cc1OC (stereo unspecified) | inactive |
| N#Cc1c(-c2ccc(Cl)cc2)c2c(n(C3OC(CO)C(O)C(O)C3O)c1=S)CCCC2 (stereo unspecified) | inactive |

q: Which outcome was assigned to `CN(C)C(=O)NC(=S)N(C)C` in this test?
a: inactive

q: Which outcome was assigned to `CN(C)CCCNc1cnc2cc3ccccc3cc2n1` in this test?
a: inactive

q: Which outcome was assigned to Cc1nn(C(=O)Cc2ccccc2)c2c1C(c1ccc(N(C)C)cc1)SC(=N)N2 (stereo unspecified) in this test?
a: inactive

q: Which outcome was assigned to `CCOc1ccccc1NC(=O)C(=O)CC(=O)c1sc(Nc2nnc(-c3ccc(Cl)c(Cl)c3)o2)nc1C` in this test?
a: inactive

q: Which outcome was assigned to `CC1(C)OB(O)OC1(C)C` in this test?
a: inactive

q: Which outcome was assigned to `O=C1C(=CNC(=S)c2ccccc2)C(=O)c2ccccc21` in this test?
a: inactive

q: Which outcome was assigned to `O=C1C(=O)c2cc([N+](=O)[O-])ccc2-c2ccc([N+](=O)[O-])cc21` in this test?
a: active

q: Which outcome was assigned to `COc1ccc(OC)c(/C=C/c2ccnc3ccccc23)c1` in this test?
a: active

q: Which outcome was assigned to `CC(C)(C)c1ccc2c(c1)S(=O)(=O)Nc1ccccc1NS(=O)(=O)c1cc(C(C)(C)C)ccc1OCCOCCOCCO2` in this test?
a: inactive
